Test system: HepG2
PROTOCOL NOTES: Anticancer activity against human HepG2 cells assessed as inhibition of cell proliferation measured after 48 hrs by MTT assay
Type: functional, cell-based
TEST CONDITIONS: HepG2, 48 h
pIC50: −log10 of the molar value.

SMILES RECORD	pIC50
COc1cc([C@@H]2c3cc4c(cc3[C@@H](O[C@@H]3O[C@@H]5CO[C@@H](c6cccs6)O[C@H]5[C@H](OC(=O)CSc5nc6cc(F)ccc6s5)[C@H]3O)[C@H]3COC(=O)[C@H]23)OCO4)cc(OC)c1O	5.57
COc1cc([C@@H]2c3cc4c(cc3[C@@H](O[C@@H]3O[C@@H]5CO[C@@H](c6cccs6)O[C@H]5[C@H](O)[C@H]3NC(=O)CSc3nc5cc(F)ccc5o3)[C@H]3COC(=O)[C@H]23)OCO4)cc(OC)c1O	3.92
COc1cc([C@@H]2c3cc4c(cc3[C@@H](O[C@@H]3O[C@@H]5CO[C@@H](c6cccs6)O[C@H]5[C@H](O)[C@H]3OC(=O)CSc3nc5cc(F)ccc5s3)[C@H]3COC(=O)[C@H]23)OCO4)cc(OC)c1O	5.70

* * *

Tested on: HepG2
PROTOCOL NOTES: Anticancer activity against human HepG2 cells assessed as inhibition of cell proliferation measured after 48 hrs by MTT assay
Format: functional, cell-based
TEST CONDITIONS: HepG2, 48 h

COMPOUND	IC50
COc1cc([C@@H]2c3cc4c(cc3[C@@H](O[C@@H]3O[C@@H]5CO[C@@H](c6cccs6)O[C@H]5[C@H](O)[C@H]3OC(=O)CSc3nc5cc(F)ccc5o3)[C@H]3COC(=O)[C@H]23)OCO4)cc(OC)c1O	1.7 µM
COc1cc([C@@H]2c3cc4c(cc3[C@@H](O[C@@H]3O[C@@H]5CO[C@@H](c6cccs6)O[C@H]5[C@H](OC(=O)CSc5nc6cc(F)ccc6o5)[C@H]3OC(=O)CSc3nc5cc(F)ccc5o3)[C@H]3COC(=O)[C@H]23)OCO4)cc(OC)c1O	15.6 µM
COc1cc([C@@H]2c3cc4c(cc3[C@@H](O[C@@H]3O[C@@H]5CO[C@@H](c6cccs6)O[C@H]5[C@H](O)[C@H]3O)[C@H]3COC(=O)[C@H]23)OCO4)cc(OC)c1O [TENIPOSIDE]	4.3 µM
COc1cc([C@@H]2c3cc4c(cc3[C@@H](O[C@@H]3O[C@@H]5CO[C@@H](c6cccs6)O[C@H]5[C@H](OC(=O)CSc5nc6cc(F)ccc6o5)[C@H]3O)[C@H]3COC(=O)[C@H]23)OCO4)cc(OC)c1O	2.1 µM

* * *

Tested on: MRC5
PROTOCOL NOTES: Cytotoxicity against human MRC5 cells assessed as inhibition of cell proliferation measured after 48 hrs by MTT assay
Format: cell-based
TEST CONDITIONS: MRC5, 48 h
pIC50: −log10 of the molar value.
MEASURED ATTRIBUTE: pIC50

SMILES RECORD	NUMERIC VALUE
COc1cc([C@@H]2c3cc4c(cc3[C@@H](O[C@@H]3O[C@@H]5CO[C@@H](c6cccs6)O[C@H]5[C@H](OC(=O)CSc5nc6cc(F)ccc6s5)[C@H]3NC(=O)CSc3nc5cc(F)ccc5s3)[C@H]3COC(=O)[C@H]23)OCO4)cc(OC)c1O	3.91
COc1cc([C@@H]2c3cc4c(cc3[C@@H](O[C@@H]3O[C@@H]5CO[C@@H](c6cccs6)O[C@H]5[C@H](OC(=O)CSc5nc6cc(F)ccc6o5)[C@H]3NC(=O)CSc3nc5cc(F)ccc5o3)[C@H]3COC(=O)[C@H]23)OCO4)cc(OC)c1O	3.91
